experimental_protocol: chemical genetic growth profiling, strain panel (AID 1159580);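 also: tested at 20 µM; growth read once vehicle control cultures reached saturation at 30 °C; 1 = growth at the plate median or of vehicle wells; lower values mean less growth of the strain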
recorded_conditions: S. cerevisiae deletion strains, growth OD, locus YHR079C, strain IRE1
Out of some 5,500 compounds screened, about 2,000 (36%) were called active. Not shown: some 18% with an inconclusive outcome. Rule as the data show it: active = normalized growth mostly below about 0.91 (no sharp cut-off); inconclusive = no clear call, values can overlap the other calls; inactive = mostly above about 0.92. The list shows a part of the results.
Hello, when you answer, please use one of the following outcomes: True for active, False for inactive

Inquiry: Record lookup: outcome of this test for CC(=O)[O][Hg][c]1ccccc1 ?
Reply text: True

We now examine a further compound.
Inquiry: Record lookup: outcome of this test for OCc1c[nH]c2ccccc12 ?
Reply text: False

----------
experimental_protocol: chemical genetic growth profiling, strain panel (AID 1159580);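 also: tested at 20 µM; growth read once vehicle control cultures reached saturation at 30 °C; 1 = growth at the plate median or of vehicle wells; lower values mean less growth of the strain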
recorded_conditions: S. cerevisiae deletion strains, growth OD, locus YGR052W, strain FMP48, stronger effect = lower value
The campaign covered roughly 5,500 compounds. About 2,000 (36%) were called active. Inconclusive results (about 18%) are left out. The list shows a part of the results.
observable: normalized growth
One number for each entry.

Inquiry: Which value of normalized growth has been reported for COc1ccc(C2CC(c3ccc(C)cc3C)=NN2C(C)=O)cc1 (configuration not stated) in the records?
Reply text: 0.971

Inquiry: Which value of normalized growth has been reported for CC(C)(C)C(=O)c1sc2sc(C(=O)C(C)(C)C)c(N)c2c1N in the records?
Reply text: 0.689

Inquiry: Which value of normalized growth has been reported for S=C(Nc1ccc(Cl)cc1)Nc1ccc(Cl)cc1 in the records?
Reply text: 0.811

Inquiry: Which value of normalized growth has been reported for N#C/C(=N/Nc1cccc(C(F)(F)F)c1)C(=O)c1csc(-c2cccnc2)n1 in the records?
Reply text: 0.566

Inquiry: Which value of normalized growth has been reported for O=C(NNC(=S)Nc1ccc(Cl)cc1)c1ncc(C(F)(F)F)cc1Cl in the records?
Reply text: 0.942

Provide reported normalized growth for each item, in the same order as listed.
1. C/C(=N/NC(=O)c1ccc(C(C)(C)C)cc1)c1ccccc1O
2. FC(F)(F)c1cc(-c2ccc(Cl)cc2)n[nH]1
3. COc1cc(N2C(=O)C=CC2=O)cc(OC)c1OC
4. Clc1ccc(N/N=C\c2sccc2Oc2ccccc2)cc1
5. CS/C(Nc1cccc(C(F)(F)F)c1)=C(/C#N)S(=O)(=O)c1ccc(Cl)cc1
6. Cc1ccc(OCc2n[nH]c(=S)n2Cc2ccccc2)c2c1CCC2
7. S=C(N/N=C\c1cccs1)NC1CC2CCC1C2 (configuration not stated)
8. CSc1nnc(COc2ccc(C)c3c2CCC3)n1-c1ccccc1

Reply text:
1: 1; 2: 0.834; 3: 0.156; 4: 0.21; 5: 0.943; 6: 0.647; 7: 0.921; 8: 1.05

----------
experimental_protocol: chemical genetic growth profiling, strain panel (AID 1159580);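 also: tested at 20 µM; growth read once vehicle control cultures reached saturation at 30 °C; 1 = growth at the plate median or of vehicle wells; lower values mean less growth of the strain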
recorded_conditions: S. cerevisiae deletion strains, growth OD, strain wtn01, stronger effect = lower value
The campaign covered roughly 5,500 compounds. About 2,000 (36%) were called active. About 18% were inconclusive and are not listed. The list shows a part of the results. *1 amine or outer side, *2 acyl side, *3 side chain or, on linkers, in order; H or OH if unused. Where a SMILES comes first, the peptide text is derived from it. Bridges are numbered along the chain shown (N, C = ends). [ ]: non-standard residue; d: D form. The star is where a group is joined. ξ: configuration not given here. ΔAla(E,3-NHCONH2) = NC(=O)N/C=C(/N)C(=O)O; X2 = NC1=NCCC(C(N[*:1])C(=O)[*:2])N1; ξβ3hOrn = NCCCC(N)CC(=O)*; Dap = NC[CH](N)C(=O)O
Field: normalized growth. Provide a value for each of the compounds that follow.
One number for each entry.

Below: 4 compounds and their reported normalized growth.
Inquiry: Which value of normalized growth has been reported for NC[C@H]1O[C@H](O[C@H]2[C@H](O)[C@@H](O[C@H]3O[C@H](CO)[C@@H](O)[C@H](N)[C@H]3O)[C@H](N)C[C@@H]2N)[C@H](N)C[C@@H]1O in the records?
Reply text: 1.01

Inquiry: Which value of normalized growth has been reported for NCCCC(N)CC(=O)NCC1NC(=O)C(CO)NC(=O)C(N)CNC(=O)C(C2CCN=C(N)N2)NC(=O)/C(=C\NC(N)=O)NC1=O (stereo not drawn) (H-[Dap]S[Dap](ξβ3hOrn)[ΔAla(E,3-NHCONH2)][X2]; lactam 1-C; configuration not given here) in the records?
Reply text: 1.04

Inquiry: Which value of normalized growth has been reported for COC(=O)[C@]1(C)CC[C@]2(C)CC[C@]3(C)C4=CC=C5C(=CC(=O)C(O)=C5C)[C@]4(C)CC[C@@]3(C)[C@@H]2C1 in the records?
Reply text: 0.894

Inquiry: Which value of normalized growth has been reported for CC(=O)Oc1cccc2c1C(=O)c1c(OC(C)=O)cc(C(=O)O)cc1C2=O in the records?
Reply text: 0.22

Provide reported normalized growth for each item, in the same order as listed.
1. COC1(C)CCC2OC2(C)CCC2C1CC2(C)C (stereo not given)
2. CN1CCN(CC(=O)N2c3ccccc3C(=O)Nc3cccnc32)CC1
3. CC(=O)N[C@@H](Cc1c[nH]c2ccccc12)C(=O)O
4. CC(=O)Oc1cccc(C(=O)O)c1OC(C)=O
5. Cc1ccc(N(CC2=NCCN2)c2cccc(O)c2)cc1
6. Cc1cc(C(C)(C)C)c(O)c(C)c1CC1=NCCN1
7. COc1cnc(NS(=O)(=O)c2ccc(N)cc2)nc1

Reply text:
1. 0.986
2. 1.01
3. 1.01
4. 1.01
5. 0.977
6. 1.01
7. 0.989

Provide reported normalized growth for each item, in the same order as listed.
1. COc1cccc(OC)c1C(=O)N[C@@H]1C(=O)N2[C@@H]1SC(C)(C)[C@@H]2C(=O)O
2. Cc1cc(=O)n(-c2ccccc2)n1C
3. CC(NCCC(c1ccccc1)c1ccccc1)c1ccccc1 (stereo not given)
4. CCc1cccc2c3c([nH]c12)C(CC)(CC(=O)O)OCC3 (stereo not given)
5. COc1ccc(C2C(=O)c3ccccc3C2=O)cc1
6. CNC(Cc1c[nH]c2ccccc12)C(=O)O (stereo not given)
7. c1ccc([C@H]2CN3CCSC3=N2)cc1
8. COc1cc2c(cc1OC)-c1c(oc3c4c(ccc3c1=O)OC(C(C)C)C4)CO2 (stereo not given)

Reply text:
1. 1.01
2. 0.979
3. 0.964
4. 0.994
5. 0.991
6. 1.02
7. 0.997
8. 1.03

Provide reported normalized growth for each item, in the same order as listed.
1. CC(=O)OCC1=C(C(=O)O)N2C(=O)[C@@H](NC(=O)CCCC(N)C(=O)O)C2SC1 (stereo not given in full)
2. COc1cc(O)cc(OC)c1OC
3. COc1cc2c(cc1OC)[C@@]13CCN4CC5=CCOC6CC(=O)N2C1[C@H]6[C@H]5C[C@H]43 (stereo not given in full)
4. OC(c1cc(C(F)(F)F)nc2c(C(F)(F)F)cccc12)C1CCCCN1 (stereo not given)

Reply text:
1: 1; 2: 1.02; 3: 1; 4: 0.96
